Target: XIAP-BIR1 (Homo sapiens, UniProt P98170)
Sequence (P98170 10-99 limits assumed): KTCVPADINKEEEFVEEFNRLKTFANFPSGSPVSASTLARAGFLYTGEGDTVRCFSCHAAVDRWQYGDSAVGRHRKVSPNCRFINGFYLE
Assay: Trp fluorescence binding assay on XIAP-BIR1
Readout: Kd

**Query** Find the measured Kd: item Cc1ccc(C2Nc3ccc(C(=O)c4ccccc4)cc3NC3=C2C(=O)CCC3)cc1 (centres unmarked) , target or system XIAP-BIR1 (Homo sapiens, UniProt P98170).
**Result** > 50 µM

**Query** And then CC1(C)CC(=O)C2=C(C1)Nc1cc(C(=O)c3ccccc3)ccc1NC2c1c[nH]c2ccccc12 (centres unmarked) , what is it?
**Result** 6.8 µM

**Query** Similarly, COc1ccc(C2Nc3ccc(C(=O)c4ccccc4)cc3NC3=C2C(=O)CCC3)cc1 (centres unmarked) ?
**Result** 18 µM

**Query** Can you check Nc1cccc(C2Nc3ccc(C(=O)c4ccccc4)cc3NC3=C2C(=O)CCC3)c1 (centres unmarked) next?
**Result** 38.1 µM

**Query** Now try O=C1CCCC2=C1C(c1cccc(O)c1)Nc1ccc(C(=O)c3ccccc3)cc1N2 (centres unmarked) .
**Result** 22 µM

---

Test system: MDA-MB-231 cells
Test: Cell viability assay (PrestoBlue) in MDA-MB-231, with or without TNF
Assay type: cell-based, human
Settings: Homo sapiens, MDA-MB-231, 48 h, MDA-MB-231, single agent, 48 h treatment, read-out: EC50
Readout: EC50 (µM)
Response body: numeric value in µM, unit text excluded.

Known EC50 results, listed for orientation:
- Molecule: "O=C1CCCC2=C1C(c1ccc(O)c(O)c1)Nc1ccc(C(=O)c3ccccc3)cc1N2 (stereo not shown)"
  Readout: "EC50"
  Reported value: 6.92
- Molecule: "CC1(C)CC(=O)C2=C(C1)Nc1cc(C(=O)c3ccccc3)ccc1NC2c1c[nH]c2ccccc12 (stereo not shown)"
  Readout: "EC50"
  Reported value: 42.8
- Molecule: "O=C1CCCC2=C1C(c1ccc(C(F)(F)F)cc1)Nc1ccc(C(=O)c3ccccc3)cc1N2 (stereo not shown)"
  Readout: "EC50"
  Reported value: 22.3

Query molecule follows.
**Query** Give the measured EC50 of COc1cccc(C2Nc3ccc(C(=O)c4ccccc4)cc3NC3=C2C(=O)CCC3)c1 (stereo not shown) .
**Result** 10.3

---

Reported Kd values for a set of compounds
Target: cIAP2-BIR1 (Homo sapiens)
Experiment: Trp fluorescence binding assay on cIAP2-BIR1
Report only the number, with the unit µM understood.

Solved entries:
- Compound: "COc1cc(C2Nc3ccc(C(=O)c4ccccc4)cc3NC3=C2C(=O)CCC3)ccc1O (stereo not drawn)"
  Reported value: 46
- Compound: "Cc1ccc(C2Nc3ccc(C(=O)c4ccccc4)cc3NC3=C2C(=O)CCC3)cc1 (stereo not drawn)"
  Reported value: 27.6
- Compound: "COc1cc(C2Nc3ccc(C(=O)c4ccccc4)cc3NC3=C2C(=O)CCC3)cc([N+](=O)[O-])c1O (stereo not drawn)"
  Reported value: 38

**Query** Field: Kd (cIAP2-BIR1 (Homo sapiens)). Entry: CC1(C)CC(=O)C2=C(C1)Nc1cc(C(=O)c3ccccc3)ccc1NC2c1c[nH]c2ccccc12 (stereo not drawn)
**Result** 1.3

**Query** Thanks! And O=C1CCCC2=C1C(c1cccc([N+](=O)[O-])c1)Nc1ccc(C(=O)c3ccccc3)cc1N2 (stereo not drawn) ?
**Result** 20.5

---

Test system: MDA-MB-231 cells
Assay: Cell viability assay (PrestoBlue) in MDA-MB-231, with or without TNF
Assay type: cell-based, human
Conditions: Homo sapiens, MDA-MB-231, 48 h, MDA-MB-231, in combination with 50 ng/mL TNF, 48 h treatment, read-out: EC50 (+TNF)
Readout: EC50 (µM)
Dear colleague, please return just the value in µM, with no unit written.

- Compound: "O=C1CCCC2=C1C(c1ccc(Cl)cc1)Nc1ccc(C(=O)c3ccccc3)cc1N2 (stereo not drawn)"
  EC50, µM: 22.2
- Compound: "O=C1CCCC2=C1C(c1ccccc1)Nc1ccc(C(=O)c3ccccc3)cc1N2 (stereo not drawn)"
  EC50, µM: 69.2
- Compound: "CC1(C)CC(=O)C2=C(C1)Nc1cc(C(=O)c3ccccc3)ccc1NC2c1c[nH]c2ccccc12 (stereo not drawn)"
  EC50, µM: 16.9
- Compound: "COc1ccc(C2Nc3ccc(C(=O)c4ccccc4)cc3NC3=C2C(=O)CCC3)cc1OC (stereo not drawn)"
  EC50, µM: 15.4
- Compound: "O=C1CCCC2=C1C(c1cccc(O)c1)Nc1ccc(C(=O)c3ccccc3)cc1N2 (stereo not drawn)"
  EC50, µM: 16.1

Now for a further compound.
**Query** Which EC50 reading was recorded for the compound Cc1ccc(C2Nc3ccc(C(=O)c4ccccc4)cc3NC3=C2C(=O)CCC3)o1 (stereo not drawn) ?
**Result** 45.3

---

Target: cIAP2-BIR1 (Homo sapiens, UniProt Q13489)
Sequence (Q13489 26-99 limits assumed): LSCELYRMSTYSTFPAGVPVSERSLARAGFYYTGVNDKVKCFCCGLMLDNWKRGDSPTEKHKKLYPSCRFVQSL
Experiment: Trp fluorescence binding assay on cIAP2-BIR1
Kd overview

- Compound: "O=C1CCCC2=C1C(c1ccc(Cl)cc1)Nc1ccc(C(=O)c3ccccc3)cc1N2 (stereo not shown)"
  Reported value: "> 50 µM"
- Compound: "COc1ccc(C2Nc3ccc(C(=O)c4ccccc4)cc3NC3=C2C(=O)CCC3)cc1O (stereo not shown)"
  Reported value: "> 50 µM"
- Compound: "Cc1ccc(C2Nc3ccc(C(=O)c4ccccc4)cc3NC3=C2C(=O)CCC3)o1 (stereo not shown)"
  Reported value: "> 50 µM"

**Query** So what's the measured Kd for this one? COc1cccc(C2Nc3ccc(C(=O)c4ccccc4)cc3NC3=C2C(=O)CCC3)c1O (stereo not shown)
**Result** > 50 µM

**Query** Follow-up item: Nc1cccc(C2Nc3ccc(C(=O)c4ccccc4)cc3NC3=C2C(=O)CCC3)c1 (stereo not shown)
**Result** 26.5 µM

**Query** Would you kindly repeat that for COc1ccc(C2Nc3ccc(C(=O)c4ccccc4)cc3NC3=C2C(=O)CCC3)cc1OC (stereo not shown) ?
**Result** 12 µM

**Query** What about this compound? O=C1CCCC2=C1C(c1ccc(O)c(O)c1)Nc1ccc(C(=O)c3ccccc3)cc1N2 (stereo not shown)
**Result** 26.9 µM
